System: auxin signaling mutants
Method summary: Effect of activators on lateral root density of auxin signaling mutants (Table 2)
Type: in vivo, Arabidopsis thaliana
Condition: Arf7Arf19; 30 uM

| Compound | lateral root density, LR/cm |
| --- | --- |
| CN1C(=O)C(=Cc2ccc(-c3cccc(C(F)(F)F)c3)o2)SC1=S | 0.04 |
| Cc1ccccc1OCC(=O)NN=Cc1ccc(C(=O)O)cc1 | 0.25 |
| COc1ccccc1CNC(=O)C(C)Sc1ccc(Cl)cc1 (centres unmarked) | 0.00 |
| NC(=S)NN=Cc1ccc(-c2cccc(C(F)(F)F)c2)o1 | 0.94 |
| CCOC(=O)c1c(NC(=O)COc2ccc(Cl)cc2C)sc2c1CC(C)(C)OC2 | 0.00 |
